Test: Antioxidant activity assessed as ABTS radical scavenging activity after 60 mins
Format: physicochemical
property_measured: IC50 (µM)

[
  {
    "molecule": "CCOC(=O)[C@@H]1C(=O)N(Cc2ccccc2)C[C@@H](ON2C(C)(C)CCCC2(C)C)[C@H]1c1ccccc1",
    "units_text": "µM",
    "meas_value": 12.2
  },
  {
    "molecule": "CC1(C)CCCC(C)(C)N1[O]",
    "units_text": "µM",
    "meas_value": 0.026
  },
  {
    "molecule": "CCOC(=O)[C@@H]1C(=O)N(Cc2ccccc2)C[C@@H](ON2C(C)(C)CCCC2(C)C)[C@H]1c1ccc(C)cc1",
    "units_text": "µM",
    "meas_value": 98.4
  },
  {
    "molecule": "CC(=O)OC[C@@H]1CN(Cc2ccccc2)C[C@@H](ON2C(C)(C)CCCC2(C)C)[C@H]1c1ccccc1",
    "units_text": "µM",
    "meas_value": 0.573
  },
  {
    "molecule": "O=c1c(O)c(-c2ccc(O)c(O)c2)oc2cc(O)cc(O)c12",
    "units_text": "µM",
    "meas_value": 5.57
  }
]

A = CC1(C)CCCC(C)(C)N1O[C@@H]1CN(Cc2ccccc2)C[C@@H](CO)[C@@H]1c1ccc(F)cc1
B = Cc1ccc([C@H]2[C@H](CO)CN(Cc3ccccc3)C[C@H]2O)cc1
C = CCOC(=O)[C@@H]1C(=O)N(Cc2ccccc2)C[C@@H](ON2C(C)(C)CCCC2(C)C)[C@H]1c1ccc(F)cc1
D = OC[C@@H]1CN(Cc2ccccc2)C[C@@H](O)[C@H]1c1ccc(F)cc1
Problem: Number of molecules to sort: 4. Sort criterion: IC50, ascending. Labels, ranked as asked.
Result: A, D, C, B
(A: 0.095 µM, D: 9.61 µM, C: 15.9 µM, B: 85.3 µM)

a = CC1(C)CCCC(C)(C)N1O[C@@H]1CN(Cc2ccccc2)C[C@@H](CO)[C@@H]1c1ccccc1
b = O=C1O[C@H]([C@@H](O)CO)C(O)=C1O
Problem: Returns the identifier with the smallest measured IC50 among a and b . Write down the label attached to your selection.
Result: a
(a: 0.093 µM, b: 25.6 µM)

###

Assay: Antioxidant activity assessed as ABTS radical scavenging activity after 60 mins
Format: physicochemical
pIC50: −log10 of the molar value.
property_measured: pIC50

Recorded results for 6 molecules are shown here.
[
  {
    "molecule": "OC[C@@H]1CN(Cc2ccccc2)CC[C@H]1c1ccccc1",
    "pIC50": "< 4.00"
  },
  {
    "molecule": "CCOC(=O)[C@@H]1C(=O)N(Cc2ccccc2)C[C@@H](O)[C@H]1c1ccc(F)cc1",
    "pIC50": "< 4.00"
  },
  {
    "molecule": "CCOC(=O)[C@@H]1C(=O)N(Cc2ccccc2)C[C@@H](O)[C@H]1c1ccccc1",
    "pIC50": "< 4.00"
  },
  {
    "molecule": "CCOC(=O)[C@@H]1C(=O)N(Cc2ccccc2)CC[C@H]1c1ccccc1",
    "pIC50": "< 4.00"
  },
  {
    "molecule": "OC[C@@H]1CN(Cc2ccccc2)C[C@@H](O)[C@H]1c1ccccc1",
    "pIC50": "< 4.00"
  },
  {
    "molecule": "CCOC(=O)[C@@H]1C(=O)N(Cc2ccccc2)C[C@@H](O)[C@H]1c1ccc(C)cc1",
    "pIC50": "< 4.00"
  }
]

--- query ---
Problem: Input Cc1ccc([C@H]2[C@H](CO)CN(Cc3ccccc3)C[C@H]2ON2C(C)(C)CCCC2(C)C)cc1 , output reported pIC50.
Result: 7.05

Hey, just so you know, these numbers are from ChEMBL document CHEMBL3804772.
